Molecular target: T1, MutS (Pseudomonas aeruginosa, UniProt Q9HY08 1-855)
T1 sequence: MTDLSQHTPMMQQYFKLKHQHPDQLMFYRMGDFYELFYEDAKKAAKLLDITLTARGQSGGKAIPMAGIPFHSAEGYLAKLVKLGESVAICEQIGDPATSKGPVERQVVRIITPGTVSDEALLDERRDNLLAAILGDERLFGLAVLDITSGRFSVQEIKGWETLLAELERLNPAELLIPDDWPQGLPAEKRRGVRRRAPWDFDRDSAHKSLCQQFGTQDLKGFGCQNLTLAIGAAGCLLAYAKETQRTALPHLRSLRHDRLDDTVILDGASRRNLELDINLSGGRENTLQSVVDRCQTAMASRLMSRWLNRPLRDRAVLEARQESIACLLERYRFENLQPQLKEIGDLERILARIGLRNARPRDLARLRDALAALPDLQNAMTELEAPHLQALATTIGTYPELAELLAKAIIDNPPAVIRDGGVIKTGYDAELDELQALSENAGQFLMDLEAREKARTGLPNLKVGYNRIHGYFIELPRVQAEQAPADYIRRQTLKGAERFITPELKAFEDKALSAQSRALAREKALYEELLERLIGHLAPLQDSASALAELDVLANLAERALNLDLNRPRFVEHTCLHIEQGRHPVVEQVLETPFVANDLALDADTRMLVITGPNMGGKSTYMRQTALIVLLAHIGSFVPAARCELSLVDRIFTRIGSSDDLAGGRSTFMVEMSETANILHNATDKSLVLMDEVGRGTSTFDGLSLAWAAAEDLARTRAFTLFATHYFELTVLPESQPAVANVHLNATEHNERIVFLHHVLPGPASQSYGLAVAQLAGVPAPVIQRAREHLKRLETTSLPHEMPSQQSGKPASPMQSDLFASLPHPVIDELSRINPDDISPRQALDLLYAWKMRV
Assay: SPR
Test readout: pKd
# reply with the number alone; pKd is -log10 of concentration in mol/L

Query: Entry GT-pDNA (GT 8 nt from 3'-OH) (dsDNA) DNA 1: ATGTGAATCAGTATGGTTGCTATCTGC DNA 2: ATTTCCTTCAGCAGATAGTAACCATACTGATTCACAT needs its pKd filled in; supply it.
Response: 7.27
